target: AP-2 complex subunit beta (Homo sapiens) (UniProt P63010); test: inhibitors of arrestin peptide binding to AP2, pilot screen, biochemical, validation set, GST-AP2 beads, flow cytometry (AID 504541); conditions: FITC arrestin peptide, at 10 µM, active compounds read high;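 note: AP2 carries R879A mutation and is captured from E. coli lysate; bead-bound FITC arrestin peptide fluorescence measuring arrestin peptide binding to AP2; 0% = DMSO wells and 100% = excess unlabeled arrestin peptide control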
Sequence (P63010 whole entry, looked up, one chain of several): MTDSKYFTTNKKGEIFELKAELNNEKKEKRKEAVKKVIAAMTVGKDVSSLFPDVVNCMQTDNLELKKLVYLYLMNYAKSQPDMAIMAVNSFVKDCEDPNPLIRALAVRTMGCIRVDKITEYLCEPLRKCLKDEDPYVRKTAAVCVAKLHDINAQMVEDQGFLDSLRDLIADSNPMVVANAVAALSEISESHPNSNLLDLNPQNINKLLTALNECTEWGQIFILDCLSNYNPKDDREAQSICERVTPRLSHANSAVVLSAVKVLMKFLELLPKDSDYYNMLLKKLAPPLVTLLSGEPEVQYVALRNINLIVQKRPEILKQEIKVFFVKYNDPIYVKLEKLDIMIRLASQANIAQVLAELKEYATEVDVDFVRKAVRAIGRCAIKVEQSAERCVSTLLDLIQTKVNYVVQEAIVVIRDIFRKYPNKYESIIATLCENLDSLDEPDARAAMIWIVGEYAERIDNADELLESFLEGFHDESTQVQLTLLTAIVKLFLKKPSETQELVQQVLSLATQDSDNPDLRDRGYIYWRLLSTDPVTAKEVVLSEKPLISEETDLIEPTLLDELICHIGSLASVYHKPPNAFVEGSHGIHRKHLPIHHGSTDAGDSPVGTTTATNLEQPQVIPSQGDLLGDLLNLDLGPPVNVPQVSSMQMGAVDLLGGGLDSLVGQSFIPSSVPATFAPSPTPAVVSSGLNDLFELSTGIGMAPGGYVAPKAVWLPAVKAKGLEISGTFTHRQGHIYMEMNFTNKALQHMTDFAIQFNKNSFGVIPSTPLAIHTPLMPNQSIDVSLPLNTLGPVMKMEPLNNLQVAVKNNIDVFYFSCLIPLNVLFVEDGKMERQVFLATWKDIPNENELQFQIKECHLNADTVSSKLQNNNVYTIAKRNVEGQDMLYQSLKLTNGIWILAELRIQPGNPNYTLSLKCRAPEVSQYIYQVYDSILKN
propertyMeasured: inhibition (%)

molecule=C[C@H]1CCC[C@H](O)CCCCCc2cc(O)cc(O)c2C(=O)O1 reported=-16.7
molecule=CN[C@H]1C[C@H]2O[C@@](C)([C@H]1OC)n1c3ccccc3c3c4c(c5c6ccccc6n2c5c31)C(=O)NC4 reported=0.54
molecule="O=C1CSC2N1CCNC21CCCCC1 (stereo not drawn)" reported=4.77
molecule=O=C(CCCN1CCC2(CC1)C(=O)NCN2c1ccccc1)c1ccc(F)cc1 reported=-9.7
molecule=c1ccc2c3c([nH]c2c1)CNCC3 reported=-0.49
molecule="CC12CCC3C(CC=C4CC(O)CCC43C)C1C/C(=C\\c1cccc(F)c1)C2=O (stereo not drawn)" reported=9.38
molecule=C[C@]12CC[C@@H]3c4ccc(O)c(O)c4CC[C@H]3[C@@H]1CC[C@@H]2O reported=1.47
molecule="CC(C)NC(C)C(=O)c1ccc2ccccc2c1 (stereo not drawn)" reported=-7.53
molecule=c1ccc2c(c1)[nH]c1cnccc12 reported=-7.59
molecule="Cc1ccc2c(c1)C1CN(C)CCC1N2C(=O)Nc1cccc(Cl)c1 (stereo not drawn)" reported=27.7
molecule=c1cnc2c(c1)ccc1ncccc12 reported=-6.24
molecule=CCN(CC)C(=O)N[C@H]1C[C@@H]2c3cccc4[nH]cc(c34)C[C@H]2N(C)C1 reported=28.7
molecule="OC1CCCCC1N1CCC(c2ccccc2)CC1 (stereo not drawn)" reported=-5.17
molecule="Clc1ccc(C2NCCc3[nH]cnc32)cc1 (stereo not drawn)" reported=-2.42
molecule=CCCC(=O)OCC[N+](C)(C)C reported=5.57
molecule="CC[C@]12C=CCN3CCC4(c5cc(Br)c(OC)cc5N(C)C4[C@@](O)(C(=O)OC)[C@@H]1OC(C)=O)C32 (stereo partly drawn)" reported=-7.24
molecule="COc1ccc(OC)c(C(O)C(C)N)c1 (stereo not drawn)" reported=-0.56
molecule=C[C@H]1CCCC(=O)CCC/C=C/c2cc(O)cc(O)c2C(=O)O1 reported=-2.22
molecule="CC(Cc1ccccc1)NCC(=O)Nc1cc(N(C)C)nc2ccccc12 (stereo not drawn)" reported=-8.4
molecule=Cc1c2ccncc2c(C)c2c1[nH]c1ccccc12 reported=5.87
molecule="CCN1CC2(COC(=O)c3ccccc3N)CCC(OC)C34C5CC6C(OC)CC(O)(C5C6OC)C(O)(C(OC)C23)C14 (stereo not drawn)" reported=4.65
molecule="CC(=O)OC1C2CCC1C(N1CCCC1)CC2 (stereo not drawn)" reported=-16
molecule=C[C@]12CCC(=O)C(O)=C1CC[C@@H]1[C@@H]2CC[C@]2(C)C(=O)CC[C@@H]12 reported=0.25

====

target: Lethal factor (Bacillus anthracis) (UniProt P15917); assay: Lethal factor protease inhibitors, Bacillus anthracis, multiplex microsphere cleavage assay, validation set (AID 588461); conditions: flow cytometry, at 10 µM, active compounds read high
Sequence (P15917 whole entry, looked up): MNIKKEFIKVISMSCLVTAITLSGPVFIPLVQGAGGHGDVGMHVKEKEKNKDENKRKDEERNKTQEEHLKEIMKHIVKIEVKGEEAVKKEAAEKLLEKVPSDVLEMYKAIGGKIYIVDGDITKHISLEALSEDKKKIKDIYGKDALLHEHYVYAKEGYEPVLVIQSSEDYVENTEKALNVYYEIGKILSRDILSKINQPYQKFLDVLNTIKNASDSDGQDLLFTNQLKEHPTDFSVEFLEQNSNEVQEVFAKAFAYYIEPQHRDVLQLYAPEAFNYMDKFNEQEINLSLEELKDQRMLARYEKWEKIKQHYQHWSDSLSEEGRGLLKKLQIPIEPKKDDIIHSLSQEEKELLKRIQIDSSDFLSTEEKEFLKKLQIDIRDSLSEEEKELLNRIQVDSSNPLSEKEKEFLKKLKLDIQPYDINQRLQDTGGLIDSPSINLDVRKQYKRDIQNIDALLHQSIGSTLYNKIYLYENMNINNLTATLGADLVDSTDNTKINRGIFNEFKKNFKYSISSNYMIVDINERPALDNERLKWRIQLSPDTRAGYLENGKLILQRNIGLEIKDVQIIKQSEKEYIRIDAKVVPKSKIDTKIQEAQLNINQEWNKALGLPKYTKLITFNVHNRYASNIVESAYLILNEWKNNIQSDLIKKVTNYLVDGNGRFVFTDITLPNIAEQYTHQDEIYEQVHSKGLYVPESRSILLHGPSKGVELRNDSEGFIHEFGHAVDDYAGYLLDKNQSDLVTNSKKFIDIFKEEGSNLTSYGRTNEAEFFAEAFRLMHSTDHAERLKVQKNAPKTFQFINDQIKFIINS
propertyMeasured: inhibition (%)

molecule=CC/C(=C\C=C\[C@@H]1C=C[C@@H]2CCC[C@H]2[C@@H]1C(=O)c1ccc[nH]1)[C@@H]1O[C@@H]([C@@H](C)C(=O)O)CC[C@@H]1C unitofmeasurement=% reported=-4.4
molecule=O=c1c2ccccc2nnn1Cc1cccc2ccccc12 unitofmeasurement=% reported=-9.5
molecule=C#C[C@]1(O)CC[C@H]2[C@@H]3CCC4=C(CCC(=O)C4)[C@H]3CC[C@@]21C unitofmeasurement=% reported=0.8
molecule=Nc1nc2ccc(OC(F)(F)F)cc2s1 unitofmeasurement=% reported=1.8
molecule=COc1ccccc1NC(=O)Cn1c(C)cc(=O)c2cccc(OC)c21 unitofmeasurement=% reported=-0.2
molecule=COC1CCN(C(=O)c2ccc(OC3CCN(Cc4ccccn4)CC3)cc2)CC1 unitofmeasurement=% reported=0.5
molecule=CC(C)(Oc1ccc(CCNC(=O)c2ccc(Cl)cc2)cc1)C(=O)O unitofmeasurement=% reported=8.7
molecule=COc1ccc([C@@H]2Sc3ccccc3N(CCN(C)C)C(=O)[C@@H]2OC(C)=O)cc1 unitofmeasurement=% reported=1
molecule=C=CCc1cccc2cc(C(=O)Nc3ccc(CC(=O)O)cc3)c(=O)oc12 unitofmeasurement=% reported=0.8
molecule=COCc1cc(=O)[nH]c(Nc2nc3ccccc3o2)n1 unitofmeasurement=% reported=0.7
molecule=O=C(O)COc1ccc2occ(C(=O)c3ccccc3)c2c1 unitofmeasurement=% reported=4.6
molecule=COc1ccc2[nH]c(=O)c(CN(C(=O)c3ccco3)C(C)C)cc2c1 unitofmeasurement=% reported=2.1
molecule="O=c1c(-c2ccc3c(c2)OCCO3)coc2cc(OC3OC(CO)C(O)C(O)C3O)ccc12 (configuration not stated)" unitofmeasurement=% reported=6.4
molecule="CC1(C)C(C=C(Cl)Cl)C1C(=O)N1CCN(Cc2ccccc2)CC1 (configuration not stated)" unitofmeasurement=% reported=-5.5
molecule=CCOC(=O)Cn1c(C)cc(=O)c2ccccc21 unitofmeasurement=% reported=9.6
molecule=COc1ccc(C(=O)NCc2cccnc2)cc1 unitofmeasurement=% reported=-4.9
molecule="COc1ccccc1/C=C/CN1CCN(Cc2ccc(F)cc2)C(CCO)C1 (configuration not stated)" unitofmeasurement=% reported=-1.4
molecule="CCNC(=O)C12CCC(C)(C(=O)O1)C2(C)C (configuration not stated)" unitofmeasurement=% reported=-7.4
molecule="COc1ccc(NC(=O)C2CSC3c4ccccc4C(=O)N23)cc1 (configuration not stated)" unitofmeasurement=% reported=-3.8
molecule=CC(C)OC(=O)c1ccc(NC(=O)c2cncc(Br)c2)cc1 unitofmeasurement=% reported=7.4
molecule="COc1cccc(CN2C(=O)N(C(C)C)C(N(O)C(=O)NC(C)C)C2(C)C)c1OC (configuration not stated)" unitofmeasurement=% reported=-2.1
molecule=O=C(O)C1CCN(C(=O)COc2ccc3c4c(c(=O)oc3c2)CCC4)CC1 unitofmeasurement=% reported=2.5
